Measured TL1A Binding Level (Early) by item
Molecular target: T1, human TL1A extracellular domain with N-terminal HIS and FLAG tag (human, UniProt O95150 72-251)
T1 construct: the whole entry is named; also called TNFSF15
T1 sequence: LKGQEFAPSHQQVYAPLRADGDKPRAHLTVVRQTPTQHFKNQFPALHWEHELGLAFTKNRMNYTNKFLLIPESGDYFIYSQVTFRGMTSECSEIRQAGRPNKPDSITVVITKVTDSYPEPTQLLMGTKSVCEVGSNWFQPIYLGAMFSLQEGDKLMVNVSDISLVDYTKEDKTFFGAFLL
Test: SPR Run 7, antibody on Protein A, TL1A 5 ug/mL, timepoint 44
Field: numeric (RU). Do not append units.

BINDER	TL1A Binding Level (Early) / RU
320-524 (antibody, human IgG1, name in Kabat numbering, V domains shown, full-length human IgG1, lambda) VH: QVQLVQSGAEVKKPGASVKVSCKASGYTFTSYDINWVRQAPGQGLEWMGWLNPNQGNTGYAQKFQGRVTMTADRSTSTAYMELSSLRSEDTAVYYCAREVPETAAFEYWGQGTLVTVSS VL: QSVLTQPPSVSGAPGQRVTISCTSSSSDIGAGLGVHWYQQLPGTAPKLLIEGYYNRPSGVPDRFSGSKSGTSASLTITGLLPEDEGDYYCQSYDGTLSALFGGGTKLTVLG	55

Read the next record carefully.
Give the measured TL1A Binding Level (Early) of 320-565 (antibody, human IgG1, name in Kabat numbering, V domains shown, full-length human IgG1, lambda) VH: QVQLVQSGAEVKKPGASVKVSCKASGYTFTSYDINWVRQAPGQGLEWMGWLNPNSGNTYYAQKFQGRVTMTADRSTSTAYMELSSLRSEDTAVYYCAREVPETAAFEYWGQGTLVTVSS VL: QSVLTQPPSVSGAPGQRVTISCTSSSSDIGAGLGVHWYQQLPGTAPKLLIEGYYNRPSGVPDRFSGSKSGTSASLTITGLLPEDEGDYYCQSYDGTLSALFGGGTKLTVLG .
43
